study system: T1, Anti-PSMA Fab (SEQ ID NOs: 19, 20)
T1 construct: In the phage ELISA the Fab was biotinylated and captured on neutravidin coated plates; also called 006 PSMA Fab
method: phage binding ELISA on captured anti-PSMA Fab; competitor: PSMA antigen
Where no end group is shown, it is not given here.
Measured Anti-PSMA Fab signal in the presence of PSMA accompanies every entry in the list below.
property measured: Anti-PSMA Fab signal in the presence of PSMA

[
  {
    "binder": "ALKLCIPFWMCEGL [Phage-1819]",
    "recorded result": 0.129
  },
  {
    "binder": "PERLCTPPWMCLGF [Phage-1817]",
    "recorded result": 0.0917
  },
  {
    "binder": "ISKLCTPPWMCEML [Phage-1825]",
    "recorded result": 0.0582
  },
  {
    "binder": "MERWCVPDWMCATF (cysteine pairing not given here; also: displayed on phage as pIII fusion, pIII sequence and linker not given here) [Phage-1818]",
    "recorded result": 0.0578
  },
  {
    "binder": "MDKWCTPPWMCDWL [Phage-1829]",
    "recorded result": 0.136
  },
  {
    "binder": "WENWCTPAWMCVGF [Phage-1822]",
    "recorded result": 0.0932
  },
  {
    "binder": "EPKWCTPAWMCEWM [Phage-1830]",
    "recorded result": 0.0904
  },
  {
    "binder": "VLKLCVPPWMCMAQ [Phage-1827]",
    "recorded result": 0.0968
  }
]

Origin of values: patent US20260242478A1
